# Test system: 313798-341-R-J2-PDC spheroids, viability
# PROTOCOL TEXT: Anticancer human tumor 313798-341-R-J2-PDC patient-derived cervical squamous cell carcinoma cell line growth inhibition [PI3K]
# STUDY CONDITIONS: second compound 0.1 µM; first compound 3.16 µM; active compounds read low; spheroids with HUVEC and MSC
PARAMETER MEASURED: viability, T/C (%)
Value expressed in %; do not type the unit.

See these solved cases before continuing.
Cn1ncc(Cl)c1-c1cc(C(=O)NC(CN)Cc2cccc(F)c2)sc1Cl (stereo not given) + COc1c(OCCCN2CCOCC2)ccc2c3n(c(=NC(=O)c4cnc(N)nc4)nc12)CCN3 :: 20.2
C=CC(=O)N1CCN(c2nc(=O)n(-c3c(C)ccnc3C(C)C)c3nc(-c4c(O)cccc4F)c(F)cc23)C(C)C1 (stereo not given) + CC(Nc1ccc2c(c1)OCCn1cc(N3C(=O)OCC3C(F)F)nc1-2)C(N)=O :: 118
CNC(=O)c1ccc(N2C(=S)N(c3ccc(C#N)c(C(F)(F)F)c3)C(=O)C2(C)C)cc1F + CC(Nc1ccc2c(c1)OCCn1cc(N3C(=O)OCC3C(F)F)nc1-2)C(N)=O :: 87.5
CC1(C)CCC(CN2CCN(c3ccc(C(=O)NS(=O)(=O)c4ccc(NCC5CCOCC5)c([N+](=O)[O-])c4)c(Oc4cnc5[nH]ccc5c4)c3)CC2)=C(c2ccc(Cl)cc2)C1 + COc1c(OCCCN2CCOCC2)ccc2c3n(c(=NC(=O)c4cnc(N)nc4)nc12)CCN3 :: 35.1
CC(C)NCC(C(=O)N1CCN(c2ncnc3c2C(C)CC3O)CC1)c1ccc(Cl)cc1 (stereo not given) + Cc1nc(NC(=O)N2CCCC2C(N)=O)sc1-c1ccnc(C(C)(C)C(F)(F)F)c1 :: 45.3
Cn1nccc1Nc1nccc(-c2ccn(C(CO)c3ccc(Cl)c(F)c3)c(=O)c2)n1 (stereo not given) + CC(Nc1ccc2c(c1)OCCn1cc(N3C(=O)OCC3C(F)F)nc1-2)C(N)=O :: 89.4

What measured viability, T/C is associated with CC1(C)CCC(Nc2ncc(C(F)(F)F)c(-c3c[nH]c4c(P(C)(C)=O)c(C#N)ccc34)n2)CN1 (stereo not given) + CC(Nc1ncnc2nc[nH]c12)c1cc2cccc(Cl)c2c(=O)n1-c1ccccc1 on 313798-341-R-J2-PDC spheroids, viability? 50.3

What measured viability, T/C is associated with CC1(C)CCC(CN2CCN(c3ccc(C(=O)NS(=O)(=O)c4ccc(NCC5CCOCC5)c([N+](=O)[O-])c4)c(Oc4cnc5[nH]ccc5c4)c3)CC2)=C(c2ccc(Cl)cc2)C1 + Cc1nc(NC(=O)N2CCCC2C(N)=O)sc1-c1ccnc(C(C)(C)C(F)(F)F)c1 on 313798-341-R-J2-PDC spheroids, viability? 85

What measured viability, T/C is associated with CC(Cn1ccc(-c2ccc(C#N)c(Cl)c2)n1)NC(=O)c1cc(C(C)O)[nH]n1 (stereo not given) + CC(Nc1ncnc2nc[nH]c12)c1cc2cccc(Cl)c2c(=O)n1-c1ccccc1 on 313798-341-R-J2-PDC spheroids, viability? 98

What measured viability, T/C is associated with CC(C)NCC(C(=O)N1CCN(c2ncnc3c2C(C)CC3O)CC1)c1ccc(Cl)cc1 (stereo not given) + COc1c(OCCCN2CCOCC2)ccc2c3n(c(=NC(=O)c4cnc(N)nc4)nc12)CCN3 on 313798-341-R-J2-PDC spheroids, viability? 23.9

----------
# Tested on: 313798-341-R-J2-PDC spheroids, viability
# PROTOCOL TEXT: Anticancer human tumor 313798-341-R-J2-PDC cell line growth inhibition [PI3K];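 also: spheroids exposed to compounds for seven days; 100% = DMSO vehicle control viability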
# STUDY CONDITIONS: second compound 0.00316 µM; first compound 0.1 µM; active compounds read low; spheroids with HUVEC and MSC
I'd appreciate it if you marked entries 1 when viability, T/C is lower than 90% and 0 when it is not.

Cn1ncnc1[C@H]1c2n[nH]c(=O)c3cc(F)cc(c23)N[C@@H]1c1ccc(F)cc1 + COc1c(OCCCN2CCOCC2)ccc2c3n(c(=NC(=O)c4cnc(N)nc4)nc12)CCN3 :: 0

Is 90% strictly greater than the compound's reported viability, T/C? compound: Cn1nccc1Nc1nccc(-c2ccn(C(CO)c3ccc(Cl)c(F)c3)c(=O)c2)n1 (stereo unspecified) + COc1c(OCCCN2CCOCC2)ccc2c3n(c(=NC(=O)c4cnc(N)nc4)nc12)CCN3 0

Is 90% strictly greater than the compound's reported viability, T/C? compound: CC1(C)CCC(CN2CCN(c3ccc(C(=O)NS(=O)(=O)c4ccc(NCC5CCOCC5)c([N+](=O)[O-])c4)c(Oc4cnc5[nH]ccc5c4)c3)CC2)=C(c2ccc(Cl)cc2)C1 + COc1c(OCCCN2CCOCC2)ccc2c3n(c(=NC(=O)c4cnc(N)nc4)nc12)CCN3 0

Is 90% strictly greater than the compound's reported viability, T/C? compound: CC(C)n1nc(-c2ccc3oc(N)nc3c2)c2c(N)ncnc21 + CC(Nc1ccc2c(c1)OCCn1cc(N3C(=O)OCC3C(F)F)nc1-2)C(N)=O 1

Is 90% strictly greater than the compound's reported viability, T/C? compound: Cn1ncnc1[C@H]1c2n[nH]c(=O)c3cc(F)cc(c23)N[C@@H]1c1ccc(F)cc1 + CC(Nc1ccc2c(c1)OCCn1cc(N3C(=O)OCC3C(F)F)nc1-2)C(N)=O 1

----------
# Tested on: 313798-341-R-J2-PDC spheroids, viability
# PROTOCOL TEXT: Anticancer human tumor 313798-341-R-J2-PDC cell line growth inhibition [PI3K];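 also: spheroids exposed to compounds for seven days; 100% = DMSO vehicle control viability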
# STUDY CONDITIONS: second compound 0.1 µM; first compound 10 µM; active compounds read low; spheroids with HUVEC and MSC
I'd appreciate it if you marked entries Satisfied when viability, T/C is lower than 80% and Not satisfied when it is not.

CC(Cn1ccc(-c2ccc(C#N)c(Cl)c2)n1)NC(=O)c1cc(C(C)O)[nH]n1 (stereo not given) + CC(Nc1ncnc2nc[nH]c12)c1cc2cccc(Cl)c2c(=O)n1-c1ccccc1 :: Not satisfied
C#Cc1c(F)ccc2cc(O)cc(-c3ncc4c(N5CC6CCC(C5)N6)nc(OCC56CCCN5CC(F)C6)nc4c3F)c12 (stereo not given) + COc1c(OCCCN2CCOCC2)ccc2c3n(c(=NC(=O)c4cnc(N)nc4)nc12)CCN3 :: Satisfied
Cn1ncc(Cl)c1-c1cc(C(=O)NC(CN)Cc2cccc(F)c2)sc1Cl (stereo not given) + CC(Nc1ccc2c(c1)OCCn1cc(N3C(=O)OCC3C(F)F)nc1-2)C(N)=O :: Satisfied

Next compound, please.
Is 80% strictly greater than the compound's reported viability, T/C? compound: C[C@@H](NC(=O)c1ncnc(N)c1Cl)c1ncc(C(=O)Nc2cc(C(F)(F)F)c(Cl)cn2)s1 + CC(Nc1ccc2c(c1)OCCn1cc(N3C(=O)OCC3C(F)F)nc1-2)C(N)=O Satisfied

----------
# Test system: 313798-341-R-J2-PDC spheroids, viability
# PROTOCOL TEXT: Anticancer human tumor 313798-341-R-J2-PDC cell line growth inhibition [PI3K];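 also: spheroids exposed to compounds for seven days; 100% = DMSO vehicle control viability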
# STUDY CONDITIONS: second compound 0.0316 µM; first compound 0.3 µM; active compounds read low; spheroids with HUVEC and MSC
In this section we review reported viability, T/C values for a set of compounds.
Value expressed in %; do not type the unit.

See these solved cases before continuing.
Cn1cnc2c(F)c(Nc3ccc(Br)cc3Cl)c(C(=O)NOCCO)cc21 + Cc1nc(NC(=O)N2CCCC2C(N)=O)sc1-c1ccnc(C(C)(C)C(F)(F)F)c1 :: 98.7
Cn1cnc2c(F)c(Nc3ccc(Br)cc3Cl)c(C(=O)NOCCO)cc21 + CC(Nc1ccc2c(c1)OCCn1cc(N3C(=O)OCC3C(F)F)nc1-2)C(N)=O :: 60.8
Cn1cnc2c(F)c(Nc3ccc(Br)cc3Cl)c(C(=O)NOCCO)cc21 + CC(Nc1ncnc2nc[nH]c12)c1cc2cccc(Cl)c2c(=O)n1-c1ccccc1 :: 91.4

Consider the additional compound presented here.
What viability, T/C value was documented for this compound, Cn1cnc2c(F)c(Nc3ccc(Br)cc3Cl)c(C(=O)NOCCO)cc21 + COc1c(OCCCN2CCOCC2)ccc2c3n(c(=NC(=O)c4cnc(N)nc4)nc12)CCN3 ? 62.5

----------
# Tested on: 313798-341-R-J2-PDC spheroids, viability
# PROTOCOL TEXT: Anticancer human tumor 313798-341-R-J2-PDC cell line growth inhibition [PI3K];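 also: spheroids exposed to compounds for seven days; 100% = DMSO vehicle control viability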
# STUDY CONDITIONS: second compound 3.16 µM; first compound 10 µM; active compounds read low; spheroids with HUVEC and MSC
In this section we review reported viability, T/C values for a set of compounds.
Value expressed in %; do not type the unit.

What measured viability, T/C is associated with CCCS(=O)(=O)Nc1ccc(F)c(C(=O)c2c[nH]c3ncc(-c4ccc(Cl)cc4)cc23)c1F + Cc1nc(NC(=O)N2CCCC2C(N)=O)sc1-c1ccnc(C(C)(C)C(F)(F)F)c1 on 313798-341-R-J2-PDC spheroids, viability? 6.48

What measured viability, T/C is associated with CC1(C)CCC(Nc2ncc(C(F)(F)F)c(-c3c[nH]c4c(P(C)(C)=O)c(C#N)ccc34)n2)CN1 (configuration not stated) + Cc1nc(NC(=O)N2CCCC2C(N)=O)sc1-c1ccnc(C(C)(C)C(F)(F)F)c1 on 313798-341-R-J2-PDC spheroids, viability? 10.8

What measured viability, T/C is associated with CC1(C)CCC(CN2CCN(c3ccc(C(=O)NS(=O)(=O)c4ccc(NCC5CCOCC5)c([N+](=O)[O-])c4)c(Oc4cnc5[nH]ccc5c4)c3)CC2)=C(c2ccc(Cl)cc2)C1 + CC(Nc1ncnc2nc[nH]c12)c1cc2cccc(Cl)c2c(=O)n1-c1ccccc1 on 313798-341-R-J2-PDC spheroids, viability? 40.5

What measured viability, T/C is associated with CCCS(=O)(=O)Nc1ccc(F)c(C(=O)c2c[nH]c3ncc(-c4ccc(Cl)cc4)cc23)c1F + CC(Nc1ncnc2nc[nH]c12)c1cc2cccc(Cl)c2c(=O)n1-c1ccccc1 on 313798-341-R-J2-PDC spheroids, viability? 24.5

What measured viability, T/C is associated with CC(Cn1ccc(-c2ccc(C#N)c(Cl)c2)n1)NC(=O)c1cc(C(C)O)[nH]n1 (configuration not stated) + CC(Nc1ncnc2nc[nH]c12)c1cc2cccc(Cl)c2c(=O)n1-c1ccccc1 on 313798-341-R-J2-PDC spheroids, viability? 93.4

What measured viability, T/C is associated with CNC(=O)c1ccc(N2C(=S)N(c3ccc(C#N)c(C(F)(F)F)c3)C(=O)C2(C)C)cc1F + CC(Nc1ncnc2nc[nH]c12)c1cc2cccc(Cl)c2c(=O)n1-c1ccccc1 on 313798-341-R-J2-PDC spheroids, viability? 84.8

What measured viability, T/C is associated with Cn1ncc(Cl)c1-c1cc(C(=O)NC(CN)Cc2cccc(F)c2)sc1Cl (configuration not stated) + Cc1nc(NC(=O)N2CCCC2C(N)=O)sc1-c1ccnc(C(C)(C)C(F)(F)F)c1 on 313798-341-R-J2-PDC spheroids, viability? 28.4
